Listing of recorded inhibition zone (IZ) by entry.
- System: Aspergillus niger
- Protocol text: Antifungal activity against Aspergillus niger MTCC 281 after 24 to 48 hrs by agar diffusion method; further: test concentration or dose not given here
- Type: functional
Give just the number in mm; leave the unit off.

As a guide, the following entries are already answered.
1) CCCCc1nc(Cl)c(C2CC(c3ccccc3O)=NN2c2nc(-c3ccc(Cl)cc3)cs2)[nH]1 (stereo not drawn) : 14
2) CCCCc1nc(Cl)c(C2CC(c3cc(Br)cc(Br)c3O)=NN2c2nc(-c3ccc(Cl)cc3)cs2)[nH]1 (stereo not drawn) : 20
3) CCCCc1nc(Cl)c(C2CC(c3cc(C)cc(I)c3O)=NN2c2nc(-c3ccc(Cl)cc3)cs2)[nH]1 (stereo not drawn) : 14
4) CCCCc1nc(Cl)c(C2CC(c3cc(Cl)cc(Br)c3O)=NN2c2nc(-c3ccc(Cl)cc3)cs2)[nH]1 (stereo not drawn) : 18
5) CCCCc1nc(Cl)c(C2CC(c3ccc(Cl)cc3)=NN2c2nc(-c3ccc(Cl)cc3)cs2)[nH]1 (stereo not drawn) : 12

Lab book: inhibition zone (IZ) of CCCCc1nc(Cl)c(C2CC(c3cc(C)cc(Br)c3O)=NN2c2nc(-c3ccc(Cl)cc3)cs2)[nH]1 (stereo not drawn) noted as 10

Lab book: inhibition zone (IZ) of CCCCc1nc(Cl)c(C2CC(c3cc(Cl)cc(I)c3O)=NN2c2nc(-c3ccc(Cl)cc3)cs2)[nH]1 (stereo not drawn) noted as 15

Lab book: inhibition zone (IZ) of CCCCc1nc(Cl)c(C2CC(c3cc(I)cc(I)c3O)=NN2c2nc(-c3ccc(Cl)cc3)cs2)[nH]1 (stereo not drawn) noted as 19

----------
- System: Staphylococcus aureus
- Protocol text: Antibacterial activity against Staphylococcus aureus MTCC 96 after 24 hrs by agar diffusion method; further: test concentration or dose not given here
- Type: functional
Readout label: inhibition zone (IZ)
# number then unit; no other words

Lab book: inhibition zone (IZ) of CCCCc1nc(Cl)c(C2CC(c3cc(Cl)cc(Br)c3O)=NN2c2nc(-c3ccc(Cl)cc3)cs2)[nH]1 (stereo not drawn) noted as 16 mm

Lab book: inhibition zone (IZ) of CCCCc1nc(Cl)c(C2CC(c3cc(Cl)c(C)c(Br)c3O)=NN2c2nc(-c3ccc(Cl)cc3)cs2)[nH]1 (stereo not drawn) noted as 11 mm

Lab book: inhibition zone (IZ) of CCCCc1nc(Cl)c(C2CC(c3cc(I)cc(I)c3O)=NN2c2nc(-c3ccc(Cl)cc3)cs2)[nH]1 (stereo not drawn) noted as 16 mm

Lab book: inhibition zone (IZ) of CCCCc1nc(Cl)c(C2CC(c3cc(Cl)c(C)c(I)c3O)=NN2c2nc(-c3ccc(Cl)cc3)cs2)[nH]1 (stereo not drawn) noted as 14 mm

Lab book: inhibition zone (IZ) of CCCCc1nc(Cl)c(C2CC(c3cc(Cl)cc(Cl)c3O)=NN2c2nc(-c3ccc(Cl)cc3)cs2)[nH]1 (stereo not drawn) noted as 16 mm

Lab book: inhibition zone (IZ) of CCCCc1nc(Cl)c(C2CC(c3ccc(Cl)cc3)=NN2c2nc(-c3ccc(Cl)cc3)cs2)[nH]1 (stereo not drawn) noted as 12 mm

Lab book: inhibition zone (IZ) of CCCCc1nc(Cl)c(C2CC(c3cc(C)cc(Br)c3O)=NN2c2nc(-c3ccc(Cl)cc3)cs2)[nH]1 (stereo not drawn) noted as 12 mm

Lab book: inhibition zone (IZ) of CCCCc1nc(Cl)c(C2CC(c3cc(Br)cc(Br)c3O)=NN2c2nc(-c3ccc(Cl)cc3)cs2)[nH]1 (stereo not drawn) noted as 18 mm

----------
- Test system: Escherichia coli
- Protocol text: Antibacterial activity against Escherichia coli MTCC 2939 after 24 hrs by agar diffusion method; further: test concentration or dose not given here
- Format: functional
Listing of recorded inhibition zone (IZ) by entry.
Give just the number in mm; leave the unit off.

1) CCCCc1nc(Cl)c(C2CC(c3ccc(OC)cc3)=NN2c2nc(-c3ccc(Cl)cc3)cs2)[nH]1 (configuration not stated) : 16
2) CCCCc1nc(Cl)c(C2CC(c3cc(C)ccc3O)=NN2c2nc(-c3ccc(Cl)cc3)cs2)[nH]1 (configuration not stated) : 11
3) CN(C)[C@@H]1C(O)=C(C(N)=O)C(=O)[C@@]2(O)C(O)=C3C(=O)c4c(O)cccc4[C@@](C)(O)[C@H]3C[C@@H]12 : 30
4) CCCCc1nc(Cl)c(C2CC(c3cc(C)cc(Br)c3O)=NN2c2nc(-c3ccc(Cl)cc3)cs2)[nH]1 (configuration not stated) : 16
5) CCCCc1nc(Cl)c(C2CC(c3ccccc3O)=NN2c2nc(-c3ccc(Cl)cc3)cs2)[nH]1 (configuration not stated) : 15
6) CCCCc1nc(Cl)c(C2CC(c3cc(Cl)ccc3O)=NN2c2nc(-c3ccc(Cl)cc3)cs2)[nH]1 (configuration not stated) : 18

Lab book: inhibition zone (IZ) of CCCCc1nc(Cl)c(C2CC(c3ccc(Cl)cc3)=NN2c2nc(-c3ccc(Cl)cc3)cs2)[nH]1 (configuration not stated) noted as 16

Lab book: inhibition zone (IZ) of CCCCc1nc(Cl)c(C2CC(c3cc(Br)cc(Br)c3O)=NN2c2nc(-c3ccc(Cl)cc3)cs2)[nH]1 (configuration not stated) noted as 22

Lab book: inhibition zone (IZ) of CCCCc1nc(Cl)c(C2CC(c3cc(Cl)cc(Cl)c3O)=NN2c2nc(-c3ccc(Cl)cc3)cs2)[nH]1 (configuration not stated) noted as 21

Lab book: inhibition zone (IZ) of CCCCc1nc(Cl)c(C2CC(c3cc(C)cc(I)c3O)=NN2c2nc(-c3ccc(Cl)cc3)cs2)[nH]1 (configuration not stated) noted as 14

Lab book: inhibition zone (IZ) of CCCCc1nc(Cl)c(C2CC(c3cc(Cl)cc(Br)c3O)=NN2c2nc(-c3ccc(Cl)cc3)cs2)[nH]1 (configuration not stated) noted as 21

Lab book: inhibition zone (IZ) of CCCCc1nc(Cl)c(C2CC(c3cc(Cl)c(C)cc3O)=NN2c2nc(-c3ccc(Cl)cc3)cs2)[nH]1 (configuration not stated) noted as 14

Lab book: inhibition zone (IZ) of CCCCc1nc(Cl)c(C2CC(c3cc(Cl)c(C)c(I)c3O)=NN2c2nc(-c3ccc(Cl)cc3)cs2)[nH]1 (configuration not stated) noted as 18

Lab book: inhibition zone (IZ) of CCCCc1nc(Cl)c(C2CC(c3cc(Cl)c(C)c(Br)c3O)=NN2c2nc(-c3ccc(Cl)cc3)cs2)[nH]1 (configuration not stated) noted as 15

Lab book: inhibition zone (IZ) of CCCCc1nc(Cl)c(C2CC(c3cc(Cl)cc(I)c3O)=NN2c2nc(-c3ccc(Cl)cc3)cs2)[nH]1 (configuration not stated) noted as 20

Lab book: inhibition zone (IZ) of CCCCc1nc(Cl)c(C2CC(c3cc(I)cc(I)c3O)=NN2c2nc(-c3ccc(Cl)cc3)cs2)[nH]1 (configuration not stated) noted as 20

Lab book: inhibition zone (IZ) of CCCCc1nc(Cl)c(C2CC(c3ccc(N)cc3)=NN2c2nc(-c3ccc(Cl)cc3)cs2)[nH]1 (configuration not stated) noted as 12

----------
- System: Trichoderma viride
- Protocol text: Antifungal activity against Trichoderma viride MTCC 167 after 24 to 48 hrs by agar diffusion method; further: test concentration or dose not given here
- Format: functional
Listing of recorded inhibition zone (IZ) by entry.
Give just the number in mm; leave the unit off.

1. CCCCc1nc(Cl)c(C2CC(c3ccc(OC)cc3)=NN2c2nc(-c3ccc(Cl)cc3)cs2)[nH]1 (stereo not drawn) : 14
2. CCCCc1nc(Cl)c(C2CC(c3cc(C)cc(Br)c3O)=NN2c2nc(-c3ccc(Cl)cc3)cs2)[nH]1 (stereo not drawn) : 14
3. CCCCc1nc(Cl)c(C2CC(c3ccc(Cl)cc3)=NN2c2nc(-c3ccc(Cl)cc3)cs2)[nH]1 (stereo not drawn) : 11

The observed inhibition zone (IZ) for CCCCc1nc(Cl)c(C2CC(c3cc(Cl)c(C)c(I)c3O)=NN2c2nc(-c3ccc(Cl)cc3)cs2)[nH]1 (stereo not drawn) when tested with Trichoderma viride stands at 12

The observed inhibition zone (IZ) for CCCCc1nc(Cl)c(C2CC(c3cc(I)cc(I)c3O)=NN2c2nc(-c3ccc(Cl)cc3)cs2)[nH]1 (stereo not drawn) when tested with Trichoderma viride stands at 20

The observed inhibition zone (IZ) for CCCCc1nc(Cl)c(C2CC(c3cc(C)ccc3O)=NN2c2nc(-c3ccc(Cl)cc3)cs2)[nH]1 (stereo not drawn) when tested with Trichoderma viride stands at 8

The observed inhibition zone (IZ) for CCCCc1nc(Cl)c(C2CC(c3cc(Cl)c(C)cc3O)=NN2c2nc(-c3ccc(Cl)cc3)cs2)[nH]1 (stereo not drawn) when tested with Trichoderma viride stands at 14

The observed inhibition zone (IZ) for CCCCc1nc(Cl)c(C2CC(c3cc(Cl)cc(Cl)c3O)=NN2c2nc(-c3ccc(Cl)cc3)cs2)[nH]1 (stereo not drawn) when tested with Trichoderma viride stands at 18
